Test system: CCRIS mutagenicity, Ames/micronucleus/aberration tests
Experiment: CCRIS mutagenicity studies
Settings: Test System: AMES SALMONELLA TYPHIMURIUM; Strain/Indicator: TA104; Metabolic Activation: NONE; Method: PREINCUBATION
Active and inactive are the calls of the source. The rule behind the calls is not given here.
Please state which outcome applies, choosing from T (active), F (inactive)

Before answering, review these 4 worked examples.
O=c1[nH]c(=O)n([C@H]2C[C@H](O)[C@@H](CO)O2)cc1/C=C/Br ... F
O=C(Cl)Cc1ccccc1 ... T
O=C(O)c1cc(Cl)ccc1Cl ... F
O=C(Br)CBr ... T

For CN(N=O)C(N)=O , which call appears in the assay record?
T

For Cc1ccccn1 , which call appears in the assay record?
F

For O=C1C=C(O)c2ccccc2C1=O , which call appears in the assay record?
F

For O=Cc1cccc(Cl)c1Cl , which call appears in the assay record?
F

---

Test system: CCRIS mutagenicity, Ames/micronucleus/aberration tests
Assay: CCRIS mutagenicity studies
Conditions: Test System: AMES SALMONELLA TYPHIMURIUM; Strain/Indicator: TA97; Metabolic Activation: HAMSTER, LIVER, S-9, AROCLOR 1254 (10%); Method: PREINCUBATION
The source made the active and inactive calls. No rule for the calls is given here.
Please state which outcome applies, choosing from active, inactive

Before answering, review these 9 worked examples.
CC(Cl)(Cl)[N+](=O)[O-] ... active
Cc1cccc(N)c1C ... inactive
CNc1ccccc1 ... inactive
ClCC(Cl)CCl ... active
Nc1ccc(NCCO)c([N+](=O)[O-])c1 ... active
O=[N+]([O-])c1cccc(O)c1 ... inactive
Oc1cccc2cccnc12 ... active
CCCCC(C=O)CC (stereo not given) ... inactive
Oc1cc(Cl)c(Cl)c(Cl)c1 ... inactive

Switching to the query record.
For N#CCc1ccccc1 , which call appears in the assay record?
inactive

---

Test system: CCRIS mutagenicity, Ames/micronucleus/aberration tests
Experiment: CCRIS mutagenicity studies
Details: Test System: AMES SALMONELLA TYPHIMURIUM; Strain/Indicator: TA98; Metabolic Activation: RAT, LIVER, S-9, AROCLOR 1254; Method: STANDARD PLATE
Active and inactive are the calls of the source. The rule behind the calls is not given here.
Please state which outcome applies, choosing from 1 (yes) (active), 0 (no) (inactive)

Before answering, review these 8 worked examples.
Clc1nc2ccccc2nc1Cl ... 0 (no)
O=S(=O)(Oc1ccc(Cl)c(Cl)c1)c1cccc2cccnc12 ... 1 (yes)
O=C(/C=C/c1cccc([N+](=O)[O-])c1)c1ccccc1 ... 0 (no)
Cc1ccc(N=Nc2ccc(N(CCO)CCO)cc2)cc1 ... 0 (no)
Nc1ccc2c(c1)C(=O)c1ccccc1C2=O ... 1 (yes)
CN1Cc2c(N)cccc2C(c2ccccc2)C1 (configuration not stated) ... 0 (no)
CCOc1ccc(NC(C)=O)cc1 ... 0 (no)
Cc1cc(S(=O)(=O)O)ccc1N ... 0 (no)

For Nc1ccccc1SCSc1ccccc1N , which call appears in the assay record?
0 (no)

For CC(C)(C)NC[C@H](O)COc1ccc(O)cc1C1CCCC1 , which call appears in the assay record?
0 (no)

For O=[N+]([O-])c1cnc2c(c1)nc1ccccn12 , which call appears in the assay record?
1 (yes)
